- target desc: cereblon (CRBN) (Homo sapiens)
- Sequence (Q96SW2 whole entry): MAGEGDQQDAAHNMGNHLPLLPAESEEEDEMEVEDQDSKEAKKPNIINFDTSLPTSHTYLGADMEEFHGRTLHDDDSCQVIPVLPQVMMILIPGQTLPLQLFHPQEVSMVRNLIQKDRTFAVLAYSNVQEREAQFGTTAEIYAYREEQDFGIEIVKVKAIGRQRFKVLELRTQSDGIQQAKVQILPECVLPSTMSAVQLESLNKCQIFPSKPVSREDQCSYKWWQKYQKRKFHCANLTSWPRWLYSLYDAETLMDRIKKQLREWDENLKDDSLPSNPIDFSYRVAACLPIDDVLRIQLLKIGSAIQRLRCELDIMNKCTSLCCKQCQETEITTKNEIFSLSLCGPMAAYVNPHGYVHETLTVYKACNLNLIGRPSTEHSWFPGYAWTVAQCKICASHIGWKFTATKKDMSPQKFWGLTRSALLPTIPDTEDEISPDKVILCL
- measurement notes: AlphaScreen assay, cereblon (CRBN)
- Assay type: binding
assay endpoint: binding to cereblon (CRBN)

{"molecule": "C[C@H](N(Cc1ccc(F)cc1)C(=O)CN1C(=O)O[C@@]2(CCc3cc(NC(=O)CCOCCOCCOCCOCCOCCOCCNc4cccc5c4C(=O)N(C4CCC(=O)NC4=O)C5=O)ccc32)C1=O)C(F)(F)F (stereo partly shown) [CPD 2]", "target desc": "cereblon (CRBN) (Homo sapiens)", "test result": "bind"}
{"molecule": "O=C1CCC(N2C(=O)c3ccccc3C2=O)C(=O)N1 (stereo not shown) [thalidomide, reference compound]", "target desc": "cereblon (CRBN) (Homo sapiens)", "test result": "bind"}
{"molecule": "Nc1cccc2c1C(=O)N(C1CCC(=O)NC1=O)C2=O (stereo not shown) [pomalidomide, reference compound]", "target desc": "cereblon (CRBN) (Homo sapiens)", "test result": "bind"}
